Listed molecules paired with reported intrinsic clearance, human liver microsomes
READOUT_LABEL: intrinsic clearance, human liver microsomes

[[record]]
molecule = "CC1(C)CN(C(=O)C2(C(=O)N3CC(C)(C)C3(C)C)CCC2)C1(C)C"
data_value = "304 mL/min/kg"

[[record]]
molecule = "Cn1cccc(C(=O)NCc2nc(C(C)(C)C)no2)c1=O"
data_value = "≤ 4.74 mL/min/kg"

[[record]]
molecule = "O=C(Nc1ccc(S(=O)(=O)Nc2ccnn2-c2ccccc2)cc1)c1ccco1"
data_value = "8.1 mL/min/kg"

[[record]]
molecule = "Cc1nccn1-c1cncc(N2CCN(CC3CCCC3)C(=O)C2)n1"
data_value = "19.7 mL/min/kg"

[[record]]
molecule = "O=C(c1ccc2[nH]ccc2c1)N1CCCC(c2cccc(-c3ccc(F)cc3)n2)C1 (stereo not drawn)"
data_value = "72.8 mL/min/kg"

[[record]]
molecule = "CC(C)CC(=O)NCC(=O)N1CCCC1"
data_value = "≤ 4.74 mL/min/kg"

[[record]]
molecule = "CC#CC(=O)N[C@H]1CCCN(c2c(F)cc(C(N)=O)c3[nH]c(C)c(C)c23)C1"
data_value = "25 mL/min/kg"

[[record]]
molecule = "CN(Cc1ccc(N)nc1)c1ncccn1"
data_value = "≤ 4.74 mL/min/kg"

[[record]]
molecule = "Cc1nn(C)c(C)c1NC(=O)CN1CCC2(CCCCC2)CC1"
data_value = "12.4 mL/min/kg"

[[record]]
molecule = "Cc1ccc2c(CC(=O)NCc3cccs3)coc2c1"
data_value = "122 mL/min/kg"

[[record]]
molecule = "CC(C)(C)c1cc(C(=O)CSc2nnnn2-c2ccccc2)cc(C(C)(C)C)c1O"
data_value = "26.1 mL/min/kg"

[[record]]
molecule = "Cc1ccc2nc3c(c(C(=O)NCc4nnc5n4CCC5)c2c1)CCCC3"
data_value = "≤ 4.74 mL/min/kg"

[[record]]
molecule = "CCOCC(=O)Nc1cccc(CN2CCCC2)c1"
data_value = "15 mL/min/kg"

[[record]]
molecule = "CN(c1ccc(NC(=O)Nc2ccc(OC(F)(F)F)cc2)cc1)c1ccnc(Nc2cccc(S(N)(=O)=O)c2)n1"
data_value = "≤ 4.74 mL/min/kg"

[[record]]
molecule = "CNC(=O)C1CCN(Cc2ncc(-c3ccc(F)cc3)o2)CC1"
data_value = "≤ 4.74 mL/min/kg"

[[record]]
molecule = "c1ccc(-c2noc(NC3CC3)n2)cc1"
data_value = "83.2 mL/min/kg"

[[record]]
molecule = "CN(C)C(=O)C1(Cc2ccccc2-c2ccccc2)CCN(C(=O)C2CCCO2)CC1 (stereo not drawn)"
data_value = "395 mL/min/kg"

[[record]]
molecule = "Cc1occc1C(=O)NCC(=O)Nc1nc2cc(Cl)ccc2n1C"
data_value = "9.49 mL/min/kg"

[[record]]
molecule = "N#Cc1cccc(CNCc2ccccn2)c1"
data_value = "≤ 4.74 mL/min/kg"

[[record]]
molecule = "OCCCCCn1cc(-c2ccccc2-c2ccco2)nn1"
data_value = "34 mL/min/kg"

[[record]]
molecule = "CC(=O)NCC1CCN(C(=O)c2ccc(C)nc2)CC1"
data_value = "≤ 4.74 mL/min/kg"

[[record]]
molecule = "Cc1cc(C(=O)Nc2ccc(C)c(C)c2)n(-c2ccccc2)n1"
data_value = "97 mL/min/kg"

[[record]]
molecule = "C[C@H]1CC[C@H](n2c3cnccc3c3cnc(Nc4ccc5c(n4)CCN(C(=O)CO)C5)nc32)CC1"
data_value = "133 mL/min/kg"

